Consider the following IC50 data for USP14 (Homo sapiens (Human), UniProt P54578), collected from several reports.

>>> result("Cc1c(C(=O)CN2CCCC2(C)C)c2ncc(Br)cc2n1-c1ccc(C#N)cc1")
"< 0.5 µM"
>>> result("Cc1cc(C(=O)CN2CCC(C(=O)OCc3ccccc3)CC2)c(C)n1C1CCC1")
"> 5 µM"
>>> result("Cc1cc(C(=O)CN2CC[C@H](O)C2)c(C)n1-c1ccc(Cl)cc1")
"0.5 to 5 µM"
>>> result("Cc1cc(C(=O)CN2CCCC2)c(C)n1-c1ccc(OC(F)(F)F)cc1")
"0.5 to 5 µM"
>>> result("Cc1c(C(=O)CN2CCCCO2)c2ncc(Br)cc2n1-c1ccc(C#N)cc1")
"> 5 µM"

Exercise: Requested read-out IC50, target or system USP14 (Homo sapiens (Human), UniProt P54578), entry Cc1cc(C#N)c(C)n1-c1ccc(Cl)cc1
Solution: > 10 µM

Exercise: For the record Cc1[nH]c2cccnc2c1C(=O)CN1CCCCC1 , what value of IC50 is listed for USP14 (Homo sapiens (Human), UniProt P54578)?
Solution: > 5 µM
